TARGET: T1, pHPMA-1 (also: 6 peptides conjugated to pHPMA polymer)
T1 chain: CGPPPRGPPPR-NH2
ASSAY_PROTOCOL: ITC
Ends that are not written are not given here.
MEASURED_ENDPOINT: Kd
Remember to follow the number with its unit.

Q: Please give the measured Kd for this binder: FBP21 tandem WW (protein) DPSKGRWVEGITSEGYHYYYDLISGASQWEKPEGFQGDLKKTAVKTVWVEGLSEDGFTYYYNTETGESRWEKPDD
Result: 5 µM
